Attribution: PubChem BioAssay AID463212

assay: growth inhibitors of tim23-1 mutant yeast, primary screen, luminescence, uHTS (AID 463212);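 further: temperature-sensitive mutant grown at 25 °C; plate controls were DMSO-treated mutant yeast for no effect and medium wells lacking yeast for full effect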; conditions: S. cerevisiae tim23-1 growth, BacTiter-Glo luminescence, 24 h; at 20 µM; active compounds read high
Among all 330,000 compounds or so, about 4,400 (1.3%) were called active. This excerpt belongs to a sample that is enriched for actives.
Record 1 whenever inhibition is at 10% or higher; record -1 when lower.

molecule: Cc1c(NC(=O)CCC2CCCCC2)cc(C(=O)N2CCOCC2)cc1[N+](=O)[O-]
category: -1
//
molecule: Cn1nc(C(F)(F)F)c2cc(NC(=O)OCC(C)(C)C)sc21
category: 1
//
molecule: CNC(=O)c1nnc(Cc2ccc(Cl)cc2)o1
category: 1
//
molecule: COc1ccc(C(=O)ON=C2c3ccccc3-c3ccccc32)cc1OC
category: -1
//
molecule: COc1ccc(C/C(N)=N/OC(=O)c2ccco2)cc1OC
category: -1
//
molecule: CCCCc1nccn1CCn1ccnc1CCCC
category: -1
//
molecule: CC(=O)NC(Cc1ccccc1)C(=O)NC1CCN(c2ncccc2[N+](=O)[O-])CC1 (stereo unspecified)
category: 1
//
molecule: COc1ccc(-c2cc3ncccc3cn2)cc1
category: -1

Is it the case that Cn1nc(C(F)(F)F)c(-c2ccc(F)cc2)c1NC(=O)CSCC(=O)O has inhibition reaching or exceeding 10%?
-1

Is it the case that Cc1ccc2nc(N3CCN(C(=O)c4ccco4)CC3)sc2c1 has inhibition reaching or exceeding 10%?
1

Is it the case that COc1ccc(-c2cc(C3CCN(c4ncccc4[N+](=O)[O-])CC3)[nH]n2)cc1 has inhibition reaching or exceeding 10%?
1
